tgt: glucocorticoid receptor (GR) (Homo sapiens)
Sequence (P04150 whole entry): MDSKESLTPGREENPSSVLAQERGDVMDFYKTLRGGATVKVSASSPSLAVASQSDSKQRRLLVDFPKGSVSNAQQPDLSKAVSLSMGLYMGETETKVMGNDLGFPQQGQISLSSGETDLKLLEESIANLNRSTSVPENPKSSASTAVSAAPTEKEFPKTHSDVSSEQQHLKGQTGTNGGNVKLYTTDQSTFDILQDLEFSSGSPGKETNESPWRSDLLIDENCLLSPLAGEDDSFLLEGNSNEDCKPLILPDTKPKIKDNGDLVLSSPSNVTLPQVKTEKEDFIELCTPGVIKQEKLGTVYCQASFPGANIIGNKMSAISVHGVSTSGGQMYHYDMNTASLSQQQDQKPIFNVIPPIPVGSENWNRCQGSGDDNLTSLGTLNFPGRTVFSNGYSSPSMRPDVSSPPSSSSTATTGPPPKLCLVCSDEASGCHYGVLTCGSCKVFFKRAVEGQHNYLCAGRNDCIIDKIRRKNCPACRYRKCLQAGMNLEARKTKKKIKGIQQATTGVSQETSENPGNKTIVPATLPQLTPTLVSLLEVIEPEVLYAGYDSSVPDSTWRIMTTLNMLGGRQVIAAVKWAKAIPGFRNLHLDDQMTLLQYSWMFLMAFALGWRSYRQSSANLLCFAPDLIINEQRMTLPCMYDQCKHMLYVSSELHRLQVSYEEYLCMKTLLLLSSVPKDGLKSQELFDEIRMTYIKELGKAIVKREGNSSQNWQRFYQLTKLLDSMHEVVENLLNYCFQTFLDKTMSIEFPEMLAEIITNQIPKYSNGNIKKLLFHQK
assay: Ligand binding assay (GR BIND), 3H-dexamethasone displacement in MDA-MB-453 cell lysate
condition_details: GR BIND Ki, Table 1
measurement_kind: Ki (nM)

1. C[C@]12Cc3cnn(-c4ccc(F)cc4)c3C=C1CC[C@@H]2C(=O)Nc1ccccc1S(N)(=O)=O	19.4
2. CCN(CC(O)C(F)(F)F)C(=O)[C@H]1CCC2=Cc3c(cnn3-c3ccccc3)C[C@@]21C (stereo partly shown) [Compound 76]	4.2
3. C[C@]12Cc3cnn(-c4ccc(F)cc4)c3C=C1CC[C@@H]2C(=O)N(CCO)Cc1csc2ccc(Cl)cc12	7.9

[I] CCCN(CC(O)C(F)(F)F)C(=O)[C@H]1CCC2=Cc3c(cnn3-c3ccc(F)cc3)C[C@@]21C (stereo partly shown)
[II] COc1cccc(CN(C)C(=O)[C@H]2CCC3=Cc4c(cnn4-c4ccc(F)cc4)C[C@@]32C)c1
[III] C[C@]12Cc3cnn(-c4ccc(F)cc4)c3C=C1CC[C@@H]2C(=O)N1CCCC(=O)CC1
[IV] CCN(CC(O)C(F)(F)F)C(=O)[C@H]1CCC2=Cc3c(cnn3-c3ccc(F)cc3)C[C@@]21C (stereo partly shown) [Compound 72]
Asked: Put these in order: smallest Ki first, largest last. # respond with the labels, arranged in the requested order
Given back: I, IV, II, III
